# Tested on: Hepatotoxicity
# Method Summary: FDA HLAED, liver enzyme composite activity
# Run Parameters: human
Measured Metric: Composite Activity - Score

[[record]]
compound = "OC[C@H]1O[C@@H](n2cnc3c2NC=NC[C@H]3O)C[C@@H]1O"
measured_metric = "Composite Activity - Score"
result = "Inactive"

[[record]]
compound = "CC(C)[C@H](N)C(=O)OCCOCn1cnc2c(=O)[nH]c(N)nc21"
measured_metric = "Composite Activity - Score"
result = "Inactive"

[[record]]
compound = "Cn1cc([S+](C)[O-])c(=O)c2ccc(F)cc21 (centres undefined)"
measured_metric = "Composite Activity - Score"
result = "Inactive"


----------
# Test system: Hepatotoxicity
# Method Summary: FDA HLAED, serum glutamic oxaloacetic transaminase (SGOT) increase
# Run Parameters: human
Measured Metric: SGOT Increase - Index Value
Note: the reply should be a number with no unit written.

Some solved entries appear below for comparison.
[[record]]
molecule = "CC(S)C(=O)NCC(=O)O (stereo not given)"
numeric_readout = 0

[[record]]
molecule = "CN(N=O)C(=O)N[C@@H](C=O)[C@@H](O)[C@H](O)[C@H](O)CO"
numeric_readout = 0

[[record]]
molecule = "COc1cc([C@@H]2c3cc4c(cc3[C@@H](O[C@@H]3O[C@@H]5CO[C@@H](c6cccs6)O[C@H]5[C@H](O)[C@H]3O)[C@H]3COC(=O)[C@H]23)OCO4)cc(OC)c1O [TENIPOSIDE]"
numeric_readout = 0

[[record]]
molecule = "NC(=O)OCC(COC(N)=O)c1ccccc1 [FELBAMATE]"
numeric_readout = 11.7

[[record]]
molecule = "CC(=O)O[C@H]1C[C@@H]2CC[C@@H]3[C@H](CC[C@@]4(C)[C@H]3C[C@H](N3CC[N+](C)(C)CC3)[C@@H]4OC(C)=O)[C@@]2(C)C[C@@H]1N1CC[N+](C)(C)CC1.[Br-].[Br-] [PIPECURONIUM BROMIDE]"
numeric_readout = 0

[[record]]
molecule = "CCCN1C[C@H](CSC)C[C@@H]2c3cccc4[nH]cc(c34)C[C@H]21 [PERGOLIDE]"
numeric_readout = 3.9

[[record]]
molecule = "CC(=O)OCC(=O)[C@@]12OC3(CCCC3)O[C@@H]1C[C@H]1[C@@H]3CCC4=CC(=O)C=C[C@]4(C)[C@@]3(F)[C@@H](O)C[C@@]12C [AMCINONIDE]"
numeric_readout = 0

[[record]]
molecule = "CCC1(c2ccc(N)cc2)CCC(=O)NC1=O (stereo not given) [AMINOGLUTETHIMIDE]"
numeric_readout = 0


Problem: Lab note: need SGOT Increase - Index Value with Hepatotoxicity for entry "CCOC(=O)N1CCC(=C2c3ccc(Cl)cc3CCc3cccnc32)CC1" , please look it up.
Solution: 0.9

Problem: Value wanted: SGOT Increase - Index Value (Hepatotoxicity) of entry "NCCCNCCSP(=O)(O)O"
Solution: 0

Problem: Query for Hepatotoxicity: what SGOT Increase - Index Value does the record show for "CO/N=C(\C(=O)N[C@@H]1C(=O)N2C(C(=O)O)=C(COC(C)=O)CS[C@H]12)c1csc(N)n1" ?
Solution: 4.7

Problem: # value lookup — system Hepatotoxicity, readout SGOT Increase - Index Value, item CN1C2CCCC1CC(NC(=O)c1nn(C)c3ccccc13)C2 (stereo not given)
Solution: 0.6

Problem: Item: "COCC1=C(C(=O)O)N2C(=O)[C@@H](NC(=O)/C(=N\OC)c3csc(N)n3)[C@H]2SC1" Test system: Hepatotoxicity Read-out: SGOT Increase - Index Value Value: ?
Solution: 1

Problem: Find the measured SGOT Increase - Index Value: item "O=C(O)CCCCCCCC(=O)O" , target or system Hepatotoxicity.
Solution: 0

Problem: I'm curious: which SGOT Increase - Index Value was measured for "C#C[C@]1(O)CC[C@H]2[C@@H]3CCC4=CC(=O)CC[C@@H]4[C@H]3CC[C@@]21CC" tested on Hepatotoxicity?
Solution: 39.7

Problem: What SGOT Increase - Index Value appears in the records for this molecule with Hepatotoxicity? CC(=O)N(CC(O)CO)c1c(I)c(C(=O)NCC(O)CO)c(I)c(C(=O)NCC(O)CO)c1I (stereo not given) [IOHEXOL]
Solution: 144.9

Problem: Please state recorded SGOT Increase - Index Value (tested on Hepatotoxicity) of "Nc1ncnc2c1ncn2[C@@H]1O[C@H](CO)[C@@H](O)[C@H]1O"
Solution: 0

Problem: # query: SGOT Increase - Index Value | item "C[C@H]1COc2c(N3CCN(C)CC3)c(F)cc3c(=O)c(C(=O)O)cn1c23.C[C@H]1COc2c(N3CCN(C)CC3)c(F)cc3c(=O)c(C(=O)O)cn1c23.O" | system: Hepatotoxicity
Solution: 0

Problem: I'm curious: which SGOT Increase - Index Value was measured for "CC(=O)[C@]1(O)Cc2c(O)c3c(c(O)c2[C@@H](O[C@H]2C[C@H](N)[C@H](O)[C@H](C)O2)C1)C(=O)c1ccccc1C3=O" tested on Hepatotoxicity?
Solution: 0

----------
# Test system: Hepatotoxicity
# Method Summary: FDA HLAED, alkaline phosphatase increase
# Run Parameters: human
Measured Metric: Alkaline Phosphatase Increase - Number of Reports

// below: answered compounds
[[record]]
compound = "Cc1ccc(-c2nc3ccc(C)cn3c2CC(=O)N(C)C)cc1 [ZOLPIDEM]"
result = ">= 4"

[[record]]
compound = "CNCCCC12CCC(c3ccccc31)c1ccccc12 [MAPROTILINE]"
result = "< 4"

[[record]]
compound = "NCCCC[C@H](N[C@@H](CCc1ccccc1)C(=O)O)C(=O)N1CCC[C@H]1C(=O)O [LISINOPRIL ANHYDROUS]"
result = ">= 4"

[[record]]
compound = "CN1C(=O)OC(C)(C)C1=O [TRIMETHADIONE]"
result = ">= 4"

[[record]]
compound = "CCOC(=O)[C@H](CCc1ccccc1)N[C@@H](C)C(=O)N1CCC[C@H]1C(=O)O"
result = ">= 4"

[[record]]
compound = "Nc1nc(Cl)nc2c1ncn2[C@H]1C[C@H](O)[C@@H](CO)O1 [CLADRIBINE]"
result = "< 4"

[[record]]
compound = "COc1ccc(C(CN(C)C)C2(O)CCCCC2)cc1 (stereo not given) [VENLAFAXINE]"
result = ">= 4"

[[record]]
compound = "CC(C)n1c(/C=C/C(O)CC(O)CC(=O)O)c(-c2ccc(F)cc2)c2ccccc21 (stereo not given) [FLUVASTATIN]"
result = ">= 4"


Problem: Recorded Alkaline Phosphatase Increase - Number of Reports for CCC1=C(C)CN(C(=O)NCCc2ccc(S(=O)(=O)NC(=O)N[C@H]3CC[C@H](C)CC3)cc2)C1=O [GLIMEPIRIDE] , please?
Solution: < 4

Problem: Item O=c1[nH]c2ccccc2n1C1CCN(CCCC(c2ccc(F)cc2)c2ccc(F)cc2)CC1 [PIMOZIDE] has what recorded Alkaline Phosphatase Increase - Number of Reports?
Solution: < 4

----------
# Tested on: Hepatotoxicity
# Method Summary: FDA HLAED, liver enzyme composite activity
# Run Parameters: human
Measured Metric: Composite Activity - Score

Here's what some known entries look like.
[[record]]
compound = "Fc1ccc([C@@H]2CCNC[C@H]2COc2ccc3c(c2)OCO3)cc1"
assay_target = "Hepatotoxicity"
result = "Inactive"

[[record]]
compound = "Cc1cn([C@H]2C[C@H](N=[N+]=[N-])[C@@H](CO)O2)c(=O)[nH]c1=O"
assay_target = "Hepatotoxicity"
result = "Active"

[[record]]
compound = "Cn1c(=O)c2[nH]cnc2n(C)c1=O.O"
assay_target = "Hepatotoxicity"
result = "Inactive"

[[record]]
compound = "O=C(NCC1CCCCN1)c1cc(OCC(F)(F)F)ccc1OCC(F)(F)F (configuration not stated) [FLECAINIDE]"
assay_target = "Hepatotoxicity"
result = "Active"

[[record]]
compound = "O=C1NC(c2ccccc2)(c2ccccc2)C(=O)N1COP(=O)(O)O"
assay_target = "Hepatotoxicity"
result = "Inactive"

[[record]]
compound = "CC(C)(C)NCC(O)COc1cccc2c1CCC(=O)N2 (configuration not stated)"
assay_target = "Hepatotoxicity"
result = "Inactive"


Problem: Quick one: Composite Activity - Score of CO[C@@]1(NC(=O)C2SC(=C(C(N)=O)C(=O)O)S2)C(=O)N2C(C(=O)O)=C(CSc3nnnn3C)CS[C@@H]21 (some centres not stated) ?
Solution: Inactive

----------
# Tested on: Hepatotoxicity
# Method Summary: FDA HLAED, liver enzyme composite activity
# Run Parameters: human
Measured Metric: Composite Activity - Active
In your answer, state the number alone without any accompanying words.

[[record]]
compound = "C=C1/C(=C\\C=C2/CCC[C@]3(C)[C@@H]([C@H](C)CCCC(C)(C)O)CC[C@@H]23)C[C@@H](O)C[C@@H]1O [CALCITRIOL]"
numeric_readout = 0


Problem: GET /values?readout=Composite Activity - Active&item= Nc1cc(Cl)c(N=C2NCCN2)c(Cl)c1 [APRACLONIDINE]
Solution: 0

Problem: Any idea what its Composite Activity - Active is? The compound is CC(c1cc2ccccc2s1)N(O)C(N)=O (stereo not given) [ZILEUTON]
Solution: 3

Problem: Endpoint output: Composite Activity - Active of CC(=O)Nc1ccc(O)cc1 [ACETAMINOPHEN] . Value?
Solution: 2

Problem: State the recorded Composite Activity - Active for this entry: CC(=O)NO [ACETOHYDROXAMIC ACID]
Solution: 0

Problem: // query Composite Activity - Active value for entry Cc1ccccc1N1CCN(CCc2nnc3n2CCCC3)CC1 [DAPIPRAZOLE]
Solution: 0

Problem: Could you share which Composite Activity - Active value was measured for Cn1cc([S+](C)[O-])c(=O)c2ccc(F)cc21 (stereo not given) [FLOSEQUINAN] ?
Solution: 1

Problem: What value of Composite Activity - Active has been recorded for this entry: CN1CCN(C2=Nc3ccccc3Oc3ccc(Cl)cc32)CC1 [LOXAPINE]
Solution: 2

Problem: So what does the record say about Composite Activity - Active for CS(=O)(=O)OCCCCOS(C)(=O)=O [BUSULFAN] ?
Solution: 0

Problem: Which Composite Activity - Active is listed for C[C@@]12CCCCC[C@@H](Cc3ccc(O)cc31)[C@@H]2N [DEZOCINE] ?
Solution: 0
